Reported Metric: IC50

**Query** Quick check: IC50 on UniProt:P56524, item `COc1ncc(-c2cc(OCCCc3ccc(C(=O)Nc4ccccc4N)cc3)c3ncnc(C)c3c2)cc1NS(=O)(=O)c1ccc(F)cc1F` ?
**Result** > 10 µM

**Query** API: value(readout= IC50, system= UniProt:P56524, query= `COc1ncc(-c2cc(OCCCCCCC(=O)Nc3ccccc3N)c3ncnc(C)c3c2)cc1NS(=O)(=O)c1ccc(F)cc1F` )
Sequence (P56524 whole entry): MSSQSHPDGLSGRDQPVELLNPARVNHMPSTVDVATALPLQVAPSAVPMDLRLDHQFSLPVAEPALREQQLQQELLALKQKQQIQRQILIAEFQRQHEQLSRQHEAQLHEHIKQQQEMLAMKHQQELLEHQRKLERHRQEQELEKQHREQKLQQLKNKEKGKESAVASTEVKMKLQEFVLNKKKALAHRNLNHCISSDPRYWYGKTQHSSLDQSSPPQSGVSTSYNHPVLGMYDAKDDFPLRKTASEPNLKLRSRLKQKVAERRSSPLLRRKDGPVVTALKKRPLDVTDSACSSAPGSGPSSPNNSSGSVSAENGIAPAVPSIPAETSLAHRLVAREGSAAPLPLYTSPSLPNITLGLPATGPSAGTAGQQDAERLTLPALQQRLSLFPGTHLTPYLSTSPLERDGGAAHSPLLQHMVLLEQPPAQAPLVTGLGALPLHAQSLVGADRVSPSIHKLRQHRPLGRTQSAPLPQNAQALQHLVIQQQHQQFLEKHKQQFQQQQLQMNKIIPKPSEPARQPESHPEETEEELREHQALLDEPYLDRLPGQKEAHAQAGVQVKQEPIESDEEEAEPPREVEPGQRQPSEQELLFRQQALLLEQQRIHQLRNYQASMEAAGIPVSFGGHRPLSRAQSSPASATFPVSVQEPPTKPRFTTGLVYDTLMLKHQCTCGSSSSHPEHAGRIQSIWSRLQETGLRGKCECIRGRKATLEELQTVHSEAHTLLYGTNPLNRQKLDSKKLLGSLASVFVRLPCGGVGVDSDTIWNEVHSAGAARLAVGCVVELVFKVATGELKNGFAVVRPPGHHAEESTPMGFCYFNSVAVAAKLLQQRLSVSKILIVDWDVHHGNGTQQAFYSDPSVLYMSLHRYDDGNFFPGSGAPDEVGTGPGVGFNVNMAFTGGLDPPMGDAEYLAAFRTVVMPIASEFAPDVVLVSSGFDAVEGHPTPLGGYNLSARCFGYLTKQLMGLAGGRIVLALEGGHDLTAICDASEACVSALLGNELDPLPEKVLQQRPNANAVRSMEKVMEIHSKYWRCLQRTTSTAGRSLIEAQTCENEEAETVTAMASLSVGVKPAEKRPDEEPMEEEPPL
**Result** > 10 µM

----------
I'd be grateful if you could share measured pIC50 for these entries.
# System Tested: Histone deacetylase 2 (Homo sapiens, UniProt Q92769)
# Sequence (Q92769 whole entry, the tested form may be a part): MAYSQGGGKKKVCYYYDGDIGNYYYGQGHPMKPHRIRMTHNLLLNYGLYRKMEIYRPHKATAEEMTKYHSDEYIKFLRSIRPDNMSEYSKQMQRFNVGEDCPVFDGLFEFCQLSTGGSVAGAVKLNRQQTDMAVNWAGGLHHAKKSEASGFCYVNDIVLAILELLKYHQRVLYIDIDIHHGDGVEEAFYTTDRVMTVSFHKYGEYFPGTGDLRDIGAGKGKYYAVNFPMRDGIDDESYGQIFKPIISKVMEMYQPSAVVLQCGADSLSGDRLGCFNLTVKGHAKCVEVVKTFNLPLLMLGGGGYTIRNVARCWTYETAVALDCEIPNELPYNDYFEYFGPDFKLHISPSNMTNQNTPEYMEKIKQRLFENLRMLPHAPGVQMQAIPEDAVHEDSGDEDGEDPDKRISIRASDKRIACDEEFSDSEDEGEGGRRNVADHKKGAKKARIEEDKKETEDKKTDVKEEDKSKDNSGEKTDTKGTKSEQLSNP
# Measurement Protocol: Inhibition of C-terminal His6-FLAG-tagged human recombinant HDAC2 (1 to 488 residues) expressed in Sf9 cells using Ac-peptide as substrate preincubated for 15 mins followed by substrate addition and measured after 1 hr by plate reader analysis
Reminder that pIC50 is minus the log10 of a molar concentration.

**Query** Quick one: pIC50 for `COc1ncc(-c2cc(OCCCCCCC(=O)Nc3ccccc3N)c3ncnc(C)c3c2)cc1NS(=O)(=O)c1ccc(F)cc1F` ?
**Result** 6.74

**Query** If you can, please state the reported pIC50 value of `COc1ncc(-c2cc(OCCCc3ccc(C(=O)Nc4ccccc4N)cc3)c3ncnc(C)c3c2)cc1NS(=O)(=O)c1ccc(F)cc1F` .
**Result** 7.07

----------
# System Tested: Phosphatidylinositol 4,5-bisphosphate 3-kinase catalytic subunit beta isoform (Homo sapiens, UniProt P42338)
# Sequence (P42338 whole entry, canonical isoform): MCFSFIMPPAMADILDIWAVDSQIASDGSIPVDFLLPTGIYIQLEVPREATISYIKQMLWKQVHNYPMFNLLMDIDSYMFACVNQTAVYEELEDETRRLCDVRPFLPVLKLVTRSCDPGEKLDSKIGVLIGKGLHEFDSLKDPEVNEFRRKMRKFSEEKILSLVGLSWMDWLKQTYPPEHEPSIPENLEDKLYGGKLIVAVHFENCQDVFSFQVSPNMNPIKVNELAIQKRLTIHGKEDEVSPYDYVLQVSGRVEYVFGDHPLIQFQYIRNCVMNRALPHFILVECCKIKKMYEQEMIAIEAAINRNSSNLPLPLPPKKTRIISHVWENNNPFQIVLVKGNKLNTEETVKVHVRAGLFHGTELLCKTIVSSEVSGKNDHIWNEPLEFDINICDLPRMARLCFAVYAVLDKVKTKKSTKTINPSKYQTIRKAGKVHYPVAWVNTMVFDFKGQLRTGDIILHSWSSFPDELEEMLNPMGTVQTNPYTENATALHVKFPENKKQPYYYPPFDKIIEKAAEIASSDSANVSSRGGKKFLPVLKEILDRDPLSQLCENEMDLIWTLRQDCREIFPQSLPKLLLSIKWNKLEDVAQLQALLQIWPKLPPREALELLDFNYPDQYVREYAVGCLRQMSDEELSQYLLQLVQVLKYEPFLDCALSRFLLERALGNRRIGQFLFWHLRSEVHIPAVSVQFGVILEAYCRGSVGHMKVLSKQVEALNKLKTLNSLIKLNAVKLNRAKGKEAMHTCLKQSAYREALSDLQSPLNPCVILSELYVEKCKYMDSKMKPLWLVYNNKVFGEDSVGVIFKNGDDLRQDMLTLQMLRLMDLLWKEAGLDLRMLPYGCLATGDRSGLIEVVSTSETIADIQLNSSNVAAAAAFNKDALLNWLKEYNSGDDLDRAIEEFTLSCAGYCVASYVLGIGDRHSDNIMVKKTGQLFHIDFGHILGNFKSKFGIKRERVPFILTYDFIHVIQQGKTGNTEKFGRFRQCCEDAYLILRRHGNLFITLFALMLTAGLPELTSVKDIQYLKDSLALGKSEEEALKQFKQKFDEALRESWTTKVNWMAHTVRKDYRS
# Measurement Protocol: Inhibition of PI3Kbeta (unknown origin) using PIP2 as substrate incubated for 1 hr in presence of ATP by ADP-Glo assay
Reported Metric: IC50 (nM)
Give just the numeric value; nM need not be written.

**Query** Which IC50 is reported for this compound? `COc1ncc(-c2cc(OCCCc3ccc(C(=O)Nc4ccccc4N)cc3)c3ncnc(C)c3c2)cc1NS(=O)(=O)c1ccc(F)cc1F`
**Result** 0.62

**Query** Which IC50 reading was recorded for the compound `COc1ncc(-c2cc(OCCCCCCC(=O)Nc3ccccc3N)c3ncnc(C)c3c2)cc1NS(=O)(=O)c1ccc(F)cc1F` ?
**Result** 0.66

----------
# Measurement Protocol: Terminal half life in ICR mouse at 60 mg/kg, po measured after 24 hrs by LC-MS/MS analysis
# Format: ADME, organism-based
# Measurement Conditions: in vivo, read-out: beta t1/2 (converted)
Could you please report measured half-life for the items listed next?
Note: unit h is implicit; provide only the numeric part.

**Query** # query: half-life of entry `COc1ncc(-c2cc(OCCCCCCC(=O)Nc3ccccc3N)c3ncnc(C)c3c2)cc1NS(=O)(=O)c1ccc(F)cc1F`
**Result** 1.38

**Query** Name the reported half-life value associated with the compound `COc1ncc(-c2cc(OCCCc3ccc(C(=O)Nc4ccccc4N)cc3)c3ncnc(C)c3c2)cc1NS(=O)(=O)c1ccc(F)cc1F`
**Result** 4.46

----------
Test system UniProt:Q13547, IC50 listed for each of the compounds.
Sequence (Q13547 whole entry): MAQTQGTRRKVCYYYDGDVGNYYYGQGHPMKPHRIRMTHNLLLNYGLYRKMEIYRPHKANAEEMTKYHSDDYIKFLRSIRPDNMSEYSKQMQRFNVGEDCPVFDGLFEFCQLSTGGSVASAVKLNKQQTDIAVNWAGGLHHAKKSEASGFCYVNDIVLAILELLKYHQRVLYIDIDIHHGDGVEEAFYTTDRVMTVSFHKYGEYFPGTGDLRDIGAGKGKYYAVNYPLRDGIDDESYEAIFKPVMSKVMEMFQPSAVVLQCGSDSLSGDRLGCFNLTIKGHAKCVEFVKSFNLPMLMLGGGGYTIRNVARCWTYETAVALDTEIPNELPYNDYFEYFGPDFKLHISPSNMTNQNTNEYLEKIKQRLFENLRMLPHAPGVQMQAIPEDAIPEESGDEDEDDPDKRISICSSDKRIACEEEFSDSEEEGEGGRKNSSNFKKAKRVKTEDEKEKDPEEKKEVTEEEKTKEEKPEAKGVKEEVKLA

**Query** Could you tell me which IC50 is on file for `COc1ncc(-c2cc(OCCOc3ccc(C(=O)Nc4ccccc4N)cc3)c3ncnc(C)c3c2)cc1NS(=O)(=O)c1ccc(F)cc1F` ?
**Result** 56 nM

**Query** Item under review: `COc1ncc(-c2cc(OCCCCCC(=O)Nc3ccccc3N)c3ncnc(C)c3c2)cc1NS(=O)(=O)c1ccc(F)cc1F` . Reported IC50?
**Result** 1310 nM

**Query** What IC50 value was documented for this compound, `COc1ncc(-c2cc(OCCCOc3ccc(C(=O)Nc4ccccc4N)cc3)c3ncnc(C)c3c2)cc1NS(=O)(=O)c1ccc(F)cc1F` ?
**Result** 95 nM
